Provenance of the data: the METLIN SMRT retention time set (Domingo-Almenara et al. 2019)

- PROCEDURE_SUMMARY: gradient 5% acetonitrile 3 min, to 50% in 2 min, to 85% in 15 min, held 3 min, 100 µL/min
- TEST_CONDITIONS: column: Zorbax Extend-C18 2.1 x 50 mm; eluents: water / acetonitrile, 0.1% formic acid

MOLECULE: O=C(Cn1ccc2ccn(Cc3cccnc3)c2c1=O)NC1CCCC1
RP-LC retention time / s: 605

MOLECULE: COc1ccccc1C(=O)Nc1nnc(SCc2ccc(Br)cc2)s1
RP-LC retention time / s: 1140

MOLECULE: COCC(=O)Nc1ccc2c(c1)CN(C(=O)c1ccccc1)CC2
RP-LC retention time / s: 658

MOLECULE: CCOCCCNC(=O)c1nc(Nc2ccc(CC)cc2)c2ccccc2n1
RP-LC retention time / s: 813

MOLECULE: Cc1ccc(CN2C[C@]34C=C[C@H](O3)[C@@H](C(=O)NCc3ccccc3)[C@H]4C2=O)cc1
RP-LC retention time / s: 822

MOLECULE: CCS(=O)(=O)N1CCc2ccc(NC(=O)COc3ccc(Cl)cc3Cl)cc2C1
RP-LC retention time / s: 964

MOLECULE: Cc1ccc(C(C)NC(=O)C2CCN(c3nccnc3Oc3cccc(C)c3)CC2)cc1 (stereo unspecified)
RP-LC retention time / s: 1070

MOLECULE: Cc1nc2ccn(Cc3ccco3)c(=O)c2cc1C(=O)NCCc1c[nH]c2ccccc12
RP-LC retention time / s: 768

MOLECULE: Cc1cc(C2CCCN2C(=O)c2c(F)cccc2Cl)no1 (stereo unspecified)
RP-LC retention time / s: 773

MOLECULE: C=CCN1C(=O)COc2ccc(-c3csc(NC(=O)CC(C)C)n3)cc21
RP-LC retention time / s: 954

MOLECULE: Cc1cc(NCCOCCO)n2nc(-c3ccc(Cl)cc3)c(C)c2n1
RP-LC retention time / s: 644

###

- PROCEDURE_SUMMARY: gradient 5% acetonitrile 3 min, to 50% in 2 min, to 85% in 15 min, held 3 min, 100 µL/min
- TEST_CONDITIONS: column: Zorbax Extend-C18 2.1 x 50 mm; eluents: water / acetonitrile, 0.1% formic acid
Criterion: RP-LC retention time meeting or surpassing 800 s. Met: MET. Not met: NOT MET.

COMPOUND: COc1ccc(Cl)cc1S(=O)(=O)N1CCCC(Cn2cnc3cccnc32)C1 (stereo not given)
ASSIGNED_LABEL: NOT MET
//
COMPOUND: CN1CCn2cc(S(=O)(=O)Nc3cccc(Cl)c3)cc2C1=O
ASSIGNED_LABEL: NOT MET
//
COMPOUND: Cc1ccccc1-c1noc(Cn2ccn(-c3c(C)cccc3C)c(=O)c2=O)n1
ASSIGNED_LABEL: MET
//
COMPOUND: CCN(CC)CCNC(=O)c1ccc(-c2ccccc2)cc1
ASSIGNED_LABEL: NOT MET
//
COMPOUND: O=C(NCC1CC1)C1CCN(c2ncnc3c2oc2ccccc23)CC1
ASSIGNED_LABEL: NOT MET
//
COMPOUND: COc1cc(C2OC(c3cccnc3)=NN2C(C)=O)cc(OC)c1OC (stereo not given)
ASSIGNED_LABEL: NOT MET
//
COMPOUND: CCOC(=O)c1ccc(N2C(=O)Cn3cccc3C2C(=O)NC2CCCCC2C)cc1 (stereo not given)
ASSIGNED_LABEL: MET
//
COMPOUND: COc1ccc(Cl)cc1NC(=O)CSc1nnc(-c2ccco2)n1-n1cccc1
ASSIGNED_LABEL: MET
//
COMPOUND: COc1ccc(N2CC(C(=O)N3CCC(C(=O)N4CCC(C(N)=O)CC4)CC3)CC2=O)cc1 (stereo not given)
ASSIGNED_LABEL: NOT MET
//
COMPOUND: CCC(=O)N1CCc2ccccc2C1C(=O)NCc1cccc(Br)c1 (stereo not given)
ASSIGNED_LABEL: MET
//
COMPOUND: COC(=O)c1ccc(NC(=O)N2CC(C)Oc3ccccc32)cc1 (stereo not given)
ASSIGNED_LABEL: MET
//
COMPOUND: Cc1nc2c(c(=O)n1CC(=O)NCc1ccccc1Br)CCN(Cc1ccccc1)C2
ASSIGNED_LABEL: NOT MET
//
COMPOUND: COc1cc(OC)c(NC(=O)N2CCC(n3cnc4cccnc43)CC2)cc1Cl
ASSIGNED_LABEL: NOT MET
//
COMPOUND: O=c1c2cc(-c3cccs3)nn2cnn1Cc1nc(-c2ccc3c(c2)OCO3)no1
ASSIGNED_LABEL: MET
//
COMPOUND: COc1ccc(NC(=O)NCC(=O)N2CCc3ccccc32)c(OC)c1
ASSIGNED_LABEL: NOT MET
//
COMPOUND: O=C(COc1ccccc1)Nc1ccc2c(c1)N(C(=O)c1ccco1)CCC2
ASSIGNED_LABEL: MET
//
COMPOUND: COc1ccc(C(=O)N2CCC(Oc3cc(N(C)C)ncn3)C2)cc1 (stereo not given)
ASSIGNED_LABEL: NOT MET
//
COMPOUND: Fc1ccc(-c2nn3c(CSc4ccccc4)nnc3s2)cc1
ASSIGNED_LABEL: MET
//
COMPOUND: COc1ccc(OC)c(NC(=O)Nc2cc(F)c3nc(N4CCOCC4)ccc3c2)c1
ASSIGNED_LABEL: MET
//
COMPOUND: COc1cccc(-c2cc(N3CCN(C(=O)Nc4cc(OC)ccc4OC)CC3)ncn2)c1
ASSIGNED_LABEL: NOT MET
//
COMPOUND: COc1ccc(C2(C(=O)N3CCc4nn(C)c(=O)n4CC3)CC2)cc1
ASSIGNED_LABEL: NOT MET
//
COMPOUND: CCOC(=O)c1ccc(NC(=O)Cn2cnc3cc4c(cc32)OCCO4)cc1
ASSIGNED_LABEL: NOT MET
//
COMPOUND: CS(=O)(=O)Nc1ccc(C2(C(=O)NCc3ccc(F)c(Cl)c3)CCCCC2)cc1
ASSIGNED_LABEL: MET
//
COMPOUND: CC(C)CCNC(=O)C1CCCN(c2nnc3ccc(C(F)(F)F)cn23)C1 (stereo not given)
ASSIGNED_LABEL: MET
//
COMPOUND: O=C(c1ccc(F)c(F)c1)N1CCc2nc(-c3ccc(Cl)cc3)ncc2C1
ASSIGNED_LABEL: MET
//
COMPOUND: CO[C@H]1C(=O)N(C(C)C)[C@H]1C1CCN(S(=O)(=O)c2cccc(F)c2)CC1
ASSIGNED_LABEL: MET
//
COMPOUND: COCC(=O)N1CCCc2ccc(NC(=O)c3cc(C)oc3C)cc21
ASSIGNED_LABEL: NOT MET
//
COMPOUND: CN(C)c1ccc(-c2nc3ccc(Cl)cn3c2Nc2ccc3c(c2)OCCO3)cc1
ASSIGNED_LABEL: NOT MET

###

- PROCEDURE_SUMMARY: gradient 5% acetonitrile 3 min, to 50% in 2 min, to 85% in 15 min, held 3 min, 100 µL/min
- TEST_CONDITIONS: column: Zorbax Extend-C18 2.1 x 50 mm; eluents: water / acetonitrile, 0.1% formic acid
Entries and their measured RP-LC retention time follow.
MEASURE: RP-LC retention time (s)

COMPOUND: COC(=O)c1c(C)[nH]c(C(=O)N2CCCC(C(=O)NCc3cccc(Br)c3)C2)c1C (centres undefined)
NUMERIC_RESULT: 813
//
COMPOUND: CCCOc1nccnc1NC1CCN(C(=O)c2cccs2)CC1
NUMERIC_RESULT: 814
//
COMPOUND: CC(=O)N1CCc2cc(N3CC(C(=O)Nc4cccc(OC(F)(F)F)c4)CC3=O)ccc21 (centres undefined)
NUMERIC_RESULT: 806
//
COMPOUND: CCc1cccc(C)c1NC(=O)C1CCN(S(=O)(=O)c2ccc3c(c2)NC(=O)CO3)CC1
NUMERIC_RESULT: 818

###

- PROCEDURE_SUMMARY: gradient 5% acetonitrile 3 min, to 50% in 2 min, to 85% in 15 min, held 3 min, 100 µL/min
- TEST_CONDITIONS: column: Zorbax Extend-C18 2.1 x 50 mm; eluents: water / acetonitrile, 0.1% formic acid
Entries and their measured RP-LC retention time follow.

MOLECULE: Cc1nc(-c2cn(C(C)C)c3ncccc23)sc1C(=O)NCC(C)C
RP-LC retention time, s: 975
//
MOLECULE: COCc1nc(C2CCN(S(=O)(=O)Cc3ccccc3)C2)no1 (centres undefined)
RP-LC retention time, s: 795
//
MOLECULE: O=C1CN(Cc2ccc(OC(F)(F)F)cc2)C2(CCCC2)CN1
RP-LC retention time, s: 682
//
MOLECULE: CC1CCN(C(=O)Cn2c(=O)n(-c3ccc(F)cc3)c3ncccc32)CC1
RP-LC retention time, s: 834

###

Entries and their measured RP-LC retention time follow.
- PROCEDURE_SUMMARY: gradient 5% acetonitrile 3 min, to 50% in 2 min, to 85% in 15 min, held 3 min, 100 µL/min
- TEST_CONDITIONS: column: Zorbax Extend-C18 2.1 x 50 mm; eluents: water / acetonitrile, 0.1% formic acid
MEASURE: RP-LC retention time (s)

COMPOUND: CCOc1cc(CN2CCCC2c2cc(C)no2)ccc1OCC(N)=O (stereo not drawn)
UNIT_DESCRIPTOR: s
NUMERIC_RESULT: 580
//
COMPOUND: CCOc1cccc(CNC(=O)c2c(C)sc3ccn(CC)c(=O)c23)c1
UNIT_DESCRIPTOR: s
NUMERIC_RESULT: 856
//
COMPOUND: O=C(Cn1nc2c(cc1=O)CCCC2)Nc1nc(-c2cccnc2)cs1
UNIT_DESCRIPTOR: s
NUMERIC_RESULT: 607
//
COMPOUND: Cc1ccc(Cl)cc1NC(=O)N1CCC(c2nc(C(=O)N3CCCC3)c(C)o2)CC1
UNIT_DESCRIPTOR: s
NUMERIC_RESULT: 858
//
COMPOUND: CCOc1ccc(CNC(=O)C2=C3CCCN3c3ccc(F)cc3S2(=O)=O)cc1
UNIT_DESCRIPTOR: s
NUMERIC_RESULT: 892
//
COMPOUND: CS(=O)(=O)N1CCCc2cc(C(=O)Nc3ccc(Br)cc3)ccc21
UNIT_DESCRIPTOR: s
NUMERIC_RESULT: 951
//
COMPOUND: CN1C(=O)C2CCCCN2c2ccc(C(=O)NCCc3c[nH]c4ccc(Cl)cc34)cc21 (stereo not drawn)
UNIT_DESCRIPTOR: s
NUMERIC_RESULT: 921
//
COMPOUND: O=C([C@@H]1C[C@H](Oc2ccccc2)CN1C(=O)C1CCCC1)N1CCCC1
UNIT_DESCRIPTOR: s
NUMERIC_RESULT: 784
//
COMPOUND: COC[C@@H]1CN(S(=O)(=O)c2cccc(C#N)c2)C[C@H]1c1ccncc1
UNIT_DESCRIPTOR: s
NUMERIC_RESULT: 630
//
COMPOUND: Cn1c(=O)c2ccn(CC(=O)N3CCC(C(N)=O)(N4CCCCC4)CC3)c2n(C)c1=O
UNIT_DESCRIPTOR: s
NUMERIC_RESULT: 728
//
COMPOUND: O=c1n(Cc2ccccc2Cl)nc2c(S(=O)(=O)N3CCCC3)cccn12
UNIT_DESCRIPTOR: s
NUMERIC_RESULT: 853
//
COMPOUND: Cc1cccc(Cn2nnc(C(=O)O)c2-c2cccnc2)c1
UNIT_DESCRIPTOR: s
NUMERIC_RESULT: 669
//
COMPOUND: O=C(Nc1ccc(Cl)cc1)C1CCN(C(=O)C2Sc3ccccc3NC2=O)CC1 (stereo not drawn)
UNIT_DESCRIPTOR: s
NUMERIC_RESULT: 819
//
COMPOUND: O=C(Nc1cnc(N2CCCC2)nc1)c1ccccc1Br
UNIT_DESCRIPTOR: s
NUMERIC_RESULT: 717
//
COMPOUND: CCOc1ccccc1-n1ccn(Cc2nc(-c3ccc(C(C)(C)C)cc3)no2)c(=O)c1=O
UNIT_DESCRIPTOR: s
NUMERIC_RESULT: 699
//
COMPOUND: CCN1C(=O)c2cc(S(=O)(=O)Nc3ccccc3F)ccc2Oc2cccnc21
UNIT_DESCRIPTOR: s
NUMERIC_RESULT: 924
//
COMPOUND: Cc1nc(-c2noc(-c3cccc(F)c3)n2)cn1CC(=O)Nc1ccc(F)cc1
UNIT_DESCRIPTOR: s
NUMERIC_RESULT: 874
//
COMPOUND: CC(C)C(NC(=O)c1ccco1)C(=O)NCc1nn(C)c2ccccc12 (stereo not drawn)
UNIT_DESCRIPTOR: s
NUMERIC_RESULT: 677
